Where a name gives a salt, the structure may show the parent alone.
endpoint: melting point

Study these solved cases before continuing.
C[C@H](N)C(=O)N1CC(F)(F)C(F)(F)C1.Cl	> 250 °C
CCC(C)[C@H](N)C(=O)N1CC(F)(F)C1.Cl (some centres unmarked)	195 °C (dec.)
CC[C@@H](C)[C@H](N)C(=O)N1CC(F)(F)C(F)(F)C1 (as salt: hydrochloride) [Example 4]	> 250 °C
N[C@H](C(=O)N1CC(F)(F)C(F)(F)C1)C1CCCCC1 (as salt: hydrochloride) [Example 3]	278 °C
CC[C@H](C)[C@H](N)C(=O)N1CC(F)C1 (as salt: hydrochloride) [Example 2]	208 to 210 °C

[Q] So what does the record say about melting point for CC[C@H](C)[C@H](N)C(=O)N1CCC(F)(F)C1 [Example 8] ?
[A] 195 to 198 °C

[Q] Then this compound: CC[C@@H](C)[C@H](N)C(=O)N1CCC(F)(F)C1 [Example 7]
[A] 196 to 198 °C

[Q] Then this compound: Cl.N[C@H](C(=O)N1CC(F)(F)C1)C1CCCCC1
[A] 220 °C (dec.)

[Q] Then this compound: CCC(C)[C@H](N)C(=O)N1CCC(F)(F)CC1.Cl (some centres unmarked)
[A] 190 to 192 °C

[Q] Then this compound: CC(C)[C@H](N)C(=O)N1CC(F)(F)C(F)(F)C1 (as salt: hydrochloride) [Example 6]
[A] 234 to 238 °C

[Q] Then this compound: N[C@H](C(=O)N1CC(F)C1)C1CCCCC1 (as salt: hydrochloride) [Example 5]
[A] 238 to 240 °C

Numbers sourced from patent US6710040B1.
